Source of measurements: patent US20250230129A1

Target: UniProt:Q12809
Assay: in vitro
Settings: pH 7.4
I'd appreciate it if you could supply inhibition at 10 µM values for the items below.
Give bare numbers, in %.

>  <compound>
CC(C)C[C@@H](NC(=O)[C@@H](Cc1ccccc1)NC(=O)N(CCN)Cc1ccccc1)C(=O)N[C@H](CCCCN)C(=O)N1CCC(N)(C(=O)O)CC1

>  <test_readout>
inhibition at 10 µM

>  <assay_result>
0.8

$$$$

I need inhibition at 10 µM for every entry listed below, if you could help.
1. CC(=O)N=S1(=O)CCN(C(=O)[C@@H](CCCCN)NC(=O)[C@@H](CC(C)C)NC(=O)[C@@H](Cc2ccccc2)NC(=O)[C@H](N)Cc2ccccc2)CC1
2. COC(=O)NC1CCN(C(=O)[C@@H](CCCCN)NC(=O)[C@@H](CC(C)C)NC(=O)[C@@H](Cc2ccccc2)NC(=O)N(C)C(CN)c2ccccc2)CC1 (stereo partly drawn)
3. CC(C)C[C@@H](NC(=O)[C@@H](Cc1ccccc1)NC(=O)[C@H](N)Cc1ccccc1)C(=O)N[C@H](CCCCN)C(=O)N1CCS(=N)(=O)CC1
4. COC(=O)NC1CCN(C(=O)[C@@H](CCCCN)NC(=O)[C@@H](CC(C)C)NC(=O)[C@@H](Cc2ccccc2)NC(=O)[C@H](N)Cc2ccccc2)CC1
5. CC(C)C[C@@H](NC(=O)[C@@H](Cc1ccccc1)NC(=O)[C@H](N)Cc1ccccc1)C(=O)N[C@H](CCCCN)C(=O)N1CCC2(CC1)OC(=O)Nc1ncccc12

Solution:
1: 1.13; 2: 2.13; 3: 1.2; 4: -0.94; 5: 0.9

====

I'd appreciate it if you could supply pEC50 values for the items below.
Biological target: κ-opioid receptor (Kappa) (Homo sapiens (Human), UniProt P41145)
Assay: In vitro functional assay, HTRF cAMP-Gi in CHO-K1-OPRK1 cells
Format: cell-based
Numbers only, as −log10 of the molar value.

>  <structure_smiles_string>
CC(C)C[C@@H](NC(=O)[C@@H](Cc1ccccc1)NC(=O)N(CCN)Cc1ccccc1)C(=O)N[C@H](CCCCN)C(=O)N1CCS(=O)(=O)CC1

>  <assay_result>
9.17

$$$$
>  <structure_smiles_string>
CN=S1(=O)CCN(C(=O)[C@@H](CCCCN)NC(=O)[C@@H](CC(C)C)NC(=O)[C@@H](Cc2ccccc2)NC(=O)N(CCN)Cc2ccccc2)CC1

>  <assay_result>
9.28

$$$$
>  <structure_smiles_string>
CC(C)C[C@@H](NC(=O)[C@@H](Cc1ccccc1)NC(=O)[C@H](N)Cc1ccccc1)C(=O)N[C@H](CCCCN)C(=O)N1CCC2(CC1)OC(=O)Nc1ncccc12

>  <assay_result>
9.70

$$$$
>  <structure_smiles_string>
CC(C)C[C@@H](NC(=O)[C@@H](Cc1ccccc1)NC(=O)C[C@@H](N)c1ccccc1)C(=O)N[C@H](CCCCN)C(=O)N1CCC(N)(C(=O)O)CC1

>  <assay_result>
8.44

$$$$

Alright, here's another compound for you.
Sample `CC(=O)N=S1(=O)CCN(C(=O)[C@@H](CCCCN)NC(=O)[C@@H](CC(C)C)NC(=O)[C@@H](Cc2ccccc2)NC(=O)[C@H](N)Cc2ccccc2)CC1` ; pEC50 observed: 9.00

====

Target: κ-opioid receptor (Kappa) (Homo sapiens (Human))
Experiment: In vitro functional assay, HTRF cAMP-Gi in CHO-K1-OPRK1 cells
Assay type: cell-based
I'd appreciate it if you could supply pEC50 values for the items below.
One number for each entry, as −log10 of the molar value.

Worked cases, answers included:
>  <molecule>
CC(=O)N1CCN(C(=O)[C@@H](CCCCN)NC(=O)[C@@H](CC(C)C)NC(=O)[C@@H](Cc2ccccc2)NC(=O)N(CCN)Cc2ccccc2)CC1

>  <pEC50>
9.62

$$$$
>  <molecule>
COC(=O)C1(N)CCN(C(=O)[C@@H](CCCCN)NC(=O)[C@@H](CC(C)C)NC(=O)[C@@H](Cc2ccccc2)NC(=O)N(CCN)Cc2ccccc2)CC1

>  <pEC50>
9.89

$$$$
>  <molecule>
CC(=O)NC1CCN(C(=O)[C@@H](CCCCN)NC(=O)[C@@H](CC(C)C)NC(=O)[C@@H](Cc2ccccc2)NC(=O)N(CCN)Cc2ccccc2)CC1

>  <pEC50>
9.80

$$$$
>  <molecule>
CC(C)C[C@@H](NC(=O)[C@@H](Cc1ccccc1)NC(=O)N(C)C(CN)c1ccccc1)C(=O)N[C@H](CCCCN)C(=O)N1CCC2(CC1)CNC(=O)c1ncccc12 (some centres unmarked)

>  <pEC50>
9.19

$$$$

Alright, here's another molecule for you.
Tested system κ-opioid receptor (Kappa) (Homo sapiens (Human)); pEC50 recorded for CC(C)C[C@@H](NC(=O)[C@@H](Cc1ccccc1)NC(=O)N(C)C(CN)c1ccccc1)C(=O)N[C@H](CCCCN)C(=O)N1CCS(=O)(=O)CC1 (some centres unmarked) was 9.46

====

Biological target: δ receptor (Homo sapiens (Human))
Assay: Competitive delta receptor binding assay (3H-DADLE)
Square brackets hold non-standard residues; d marks the D form. Peptide text beside a SMILES is read from it. * marks the point of attachment. Piperidin1yl(4-NH2,4-COOH) = NC1(C(=O)O)CCN(*)CC1; dPhLac = O=C(O)[C@H](O)Cc1ccccc1
I'd appreciate it if you could supply Ki values for the items below.

>  <compound>
CC(=O)N1CCN(C(=O)[C@@H](CCCCN)NC(=O)[C@@H](CC(C)C)NC(=O)[C@@H](Cc2ccccc2)NC(=O)N(CCN)Cc2ccccc2)CC1 [Compound 47]

>  <Ki>
> 1000 nM

$$$$

I need Ki for every entry listed below, if you could help.
1. COC(=O)C1(N)CCN(C(=O)[C@@H](CCCCN)NC(=O)[C@@H](CC(C)C)NC(=O)[C@@H](Cc2ccccc2)NC(=O)N(CCN)Cc2ccccc2)CC1 [Compound 13-2]
2. CC(C)C[C@@H](NC(=O)[C@@H](Cc1ccccc1)NC(=O)[C@H](O)Cc1ccccc1)C(=O)N[C@H](CCCCN)C(=O)N1CCC(N)(C(=O)O)CC1 [Compound 3] (H-[dPhLac][dF][dL][dK]-{Piperidin1yl(4-NH2,4-COOH)})

Solution:
1. > 1000 nM
2. > 1000 nM

====

Target: κ receptor (Homo sapiens (Human), UniProt P41145)
Experiment: Competitive Kappa receptor binding assay (3H-U69593)
I'd appreciate it if you could supply log10(Ki) values for the items below.
Note: values are log10 of Ki expressed in nM.

Worked cases, answers included:
>  <compound>
CC(C)C[C@@H](NC(=O)[C@@H](Cc1ccccc1)NC(=O)N(CCN)CC1CC1)C(=O)N[C@H](CCCCN)C(=O)N1CCC(N)(C(=O)O)CC1

>  <test_system>
κ receptor (Homo sapiens (Human), UniProt P41145)

>  <assay_result>
0.58

$$$$
>  <compound>
COC(=O)N1CCN(C(=O)[C@@H](CCCCN)NC(=O)[C@@H](CC(C)C)NC(=O)[C@@H](Cc2ccccc2)NC(=O)N(CCN)Cc2ccccc2)CC1

>  <test_system>
κ receptor (Homo sapiens (Human), UniProt P41145)

>  <assay_result>
-0.54

$$$$
>  <compound>
CC(C)C[C@@H](NC(=O)[C@@H](Cc1ccccc1)NC(=O)N(CCN)Cc1ccccc1)C(=O)N[C@H](CCCCN)C(=O)N1CCOCC1

>  <test_system>
κ receptor (Homo sapiens (Human), UniProt P41145)

>  <assay_result>
-0.57

$$$$
>  <compound>
COC(=O)NC1CCN(C(=O)[C@@H](CCCCN)NC(=O)[C@@H](CC(C)C)NC(=O)[C@@H](Cc2ccccc2)NC(=O)[C@H](N)Cc2ccccc2)CC1

>  <test_system>
κ receptor (Homo sapiens (Human), UniProt P41145)

>  <assay_result>
-0.40

$$$$

I need log10(Ki) for every entry listed below, if you could help.
1. COC(=O)C1(N)CCN(C(=O)[C@@H](CCCCN)NC(=O)[C@@H](CC(C)C)NC(=O)[C@@H](Cc2ccccc2)NC(=O)N(CCN)Cc2ccccc2)CC1
2. COC(=O)C1(N)CCN(C(=O)[C@@H](CCCCN)NC(=O)[C@@H](CC(C)C)NC(=O)[C@@H](Cc2ccccc2)NC(=O)N(C)C(CN)c2ccccc2)CC1 (some centres unmarked)
3. CC(C)C[C@@H](NC(=O)[C@@H](Cc1ccccc1)NC(=O)N(CCN)Cc1ccccc1)C(=O)N[C@H](CCCCN)C(=O)N1CCC(N)(C(=O)O)CC1
4. COC(=O)N=S1(=O)CCN(C(=O)[C@@H](CCCCN)NC(=O)[C@@H](CC(C)C)NC(=O)[C@@H](Cc2ccccc2)NC(=O)[C@H](N)Cc2ccccc2)CC1

Solution:
[-0.89, 0.04, -0.89, 0.27]

I need log10(Ki) for every entry listed below, if you could help.
1. CC(C)C[C@@H](NC(=O)[C@@H](Cc1ccccc1)NC(=O)N(C)C(CN)c1ccccc1)C(=O)N[C@H](CCCCN)C(=O)N1CCS(=N)(=O)CC1 (some centres unmarked)
2. CC(C)C[C@@H](NC(=O)[C@@H](Cc1ccccc1)NC(=O)N(C)C(CN)c1ccccc1)C(=O)N[C@H](CCCCN)C(=O)N1CCC(NC(=O)OC2CCOCC2)CC1 (some centres unmarked)
3. CC(C)C[C@@H](NC(=O)[C@@H](Cc1ccccc1)NC(=O)N(CCN)Cc1ccccc1)C(=O)N[C@H](CCCCN)C(=O)N1CCS(=O)(=O)CC1

Solution:
[-0.07, -0.25, -0.48]
